Listed next: entries and their corresponding max response.
# procedure.summary: qHTS assay for cell viability of HEK293 cells (AID 743288); note: % is set by controls: 0 for no effect and ±100 for the full control effect; nearly all actives have a fitted effect of over 50% in size
# condition.context: ATP luminescence (CellTiter-Glo), 18 h; stronger effect = lower value
Records with an inconclusive call do not appear.

[
  {
    "compound": "CC(C)(O)C(=O)Nc1ccc([N+](=O)[O-])c(C(F)(F)F)c1",
    "max response, %": -8.24
  },
  {
    "compound": "Cc1cc(O)ccc1Cl",
    "max response, %": -2.31
  },
  {
    "compound": "O=C(O)COc1ccccc1",
    "max response, %": -7.91
  },
  {
    "compound": "CC(C)(C)C(O)C(Oc1ccc(Cl)cc1)n1cncn1 (stereo unspecified)",
    "max response, %": -2.21
  },
  {
    "compound": "O=C(O)COc1nc(Cl)c(Cl)cc1Cl",
    "max response, %": -10.3
  },
  {
    "compound": "CCCCCC[C@H]1C(=O)O[C@H](C)[C@H](NC(=O)c2cccc(NC=O)c2O)C(=O)O[C@@H](C)[C@@H]1OC(=O)CC(C)C",
    "max response, %": -27.4
  }
]

----------
# Tested on: CP291
# procedure.summary: qHTS profiling for inhibitors of Plasmodium falciparum proliferation (AID 504749); note: nearly all actives have a fitted effect of over 60% in size
# condition.context: P. falciparum in erythrocytes, SYBR Green DNA, 72 h; series mostly up to 28.7 µM
Inconclusive results are not listed. Activity calls are given as the source filed them. Calls come from the whole dose curve; as a rule, active = well fitted inhibition curve with a large enough effect; inconclusive = small, poorly fitted or top-dose-only effect; inactive = flat fitted curve, though single readings scatter.
Outcomes: yes (1) for active, no (0) for inactive

[
  {
    "compound": "C#CC1(O)CCC2C3CCC4=CC(=O)CCC4(C)C3CCC21C (stereo not given)",
    "assay.system": "CP291",
    "group": "no (0)"
  },
  {
    "compound": "Cc1ccc(Cl)c(O)c1",
    "assay.system": "CP291",
    "group": "no (0)"
  },
  {
    "compound": "CC[N+]1(CCOC(=O)C(O)(c2ccccc2)c2ccccc2)CCCCC1",
    "assay.system": "CP291",
    "group": "no (0)"
  },
  {
    "compound": "O=[N+]([O-])c1ccc([As](=O)(O)O)cc1",
    "assay.system": "CP291",
    "group": "yes (1)"
  },
  {
    "compound": "CCCN1CCC[C@H](c2cccc(O)c2)C1",
    "assay.system": "CP291",
    "group": "no (0)"
  },
  {
    "compound": "CCCCc1ccc(C(=O)O)nc1",
    "assay.system": "CP291",
    "group": "no (0)"
  },
  {
    "compound": "NC(=O)CN1CC(O)CC1=O (stereo not given)",
    "assay.system": "CP291",
    "group": "no (0)"
  },
  {
    "compound": "CN(C)[C@@H]1C(=O)C(C(N)=O)=C(O)[C@@]2(O)C(=O)C3=C(O)c4c(O)cccc4[C@@](C)(O)[C@H]3[C@H](O)[C@@H]12",
    "assay.system": "CP291",
    "group": "no (0)"
  },
  {
    "compound": "CCCCCCCCCC(CC)c1ccc(S(=O)(=O)O)cc1 (stereo not given)",
    "assay.system": "CP291",
    "group": "no (0)"
  },
  {
    "compound": "Cc1cc(O)ccc1Cl",
    "assay.system": "CP291",
    "group": "no (0)"
  },
  {
    "compound": "CCCCCCCCCCCCCCCC[N+](C)(C)C",
    "assay.system": "CP291",
    "group": "yes (1)"
  },
  {
    "compound": "c1ccc(C2(c3ccccc3)CC2C2=NCCN2)cc1 (stereo not given)",
    "assay.system": "CP291",
    "group": "no (0)"
  },
  {
    "compound": "C1CCC(NC2CCCCC2)CC1",
    "assay.system": "CP291",
    "group": "no (0)"
  },
  {
    "compound": "CC(=O)[O][Hg][c]1ccccc1",
    "assay.system": "CP291",
    "group": "yes (1)"
  },
  {
    "compound": "C[C@]12CCC(=O)C(O)=C1CC[C@@H]1[C@H]3CCC(=O)[C@@]3(C)CC[C@@H]12",
    "assay.system": "CP291",
    "group": "no (0)"
  }
]
